Hi there, I'd appreciate the recorded Percentage of concentration relative to the sum of ZEN and ZEN metabolite concentrations for every entry that follows.
measurement_protocol: Feeding trial in rumen-fistulated dairy cows: ZEN and ZEN metabolites in feces
Assay type: in vivo, Holstein Friesian cows
settings: feces, ZEN+ZenA treatment, 0 h (48 h after ZEN treatment)
Write it as a number; the unit % goes unstated.

Sample `C[C@H]1CCC[C@@H](O)CCC/C=C/c2cc(O)cc(O)c2C(=O)O1` — what was its Percentage of concentration relative to the sum of ZEN and ZEN metabolite concentrations? 69.0

Sample `C[C@H]1CCCC(=O)CCC/C=C/c2cc(O)cc(O)c2C(=O)O1` — what was its Percentage of concentration relative to the sum of ZEN and ZEN metabolite concentrations? 15.6

Sample `C[C@H]1CCC[C@H](O)CCC/C=C/c2cc(O)cc(O)c2C(=O)O1` — what was its Percentage of concentration relative to the sum of ZEN and ZEN metabolite concentrations? 15.5

Sample C[C@H](O)CCCC(=O)CCC/C=C/c1cc(O)cc(O)c1 [DHZEN, decarboxylated hydrolyzed zearalenone] — what was its Percentage of concentration relative to the sum of ZEN and ZEN metabolite concentrations? 0.0

Sample C[C@H](O)CCCC(=O)CCC/C=C/c1cc(O)cc(O)c1C(=O)O [HZEN, hydrolyzed zearalenone] — what was its Percentage of concentration relative to the sum of ZEN and ZEN metabolite concentrations? 0.0

====

measurement_protocol: Feeding trial in rumen-fistulated dairy cows: ZEN and ZEN metabolites in rumen fluid from reticulum, dorsal mat layer and ventral sac
Type: in vivo, Holstein Friesian cows
settings: reticulorumen, ZEN treatment, 15 min after feeding; from median of 3 locations
Description: Ruminal metabolism of ZEN with and without supplementation of ZenA was investigated in four rumen-fistulated Holstein Friesian cows (sex: female; age at start: 5.9 ± 1.0 years; body weight at start: 863 ± 65 kg; physiological stage: non-lactating; general health: good, non-gestating; identification procedure: ear tag 4-digit code). […] In our trial setup, each animal was considered an experimental unit (n = 4). […] Animals were treated and assessed in the same random order at each experimental time point. […]
parameter_measured: Percentage of concentration relative to the sum of ZEN and ZEN metabolite concentrations (%)
Write it as a number; the unit % goes unstated.

Sample C[C@H](O)CCCC(=O)CCC/C=C/c1cc(O)cc(O)c1 [DHZEN, decarboxylated hydrolyzed zearalenone] — what was its Percentage of concentration relative to the sum of ZEN and ZEN metabolite concentrations? 0.0

Sample `C[C@H]1CCCC(=O)CCC/C=C/c2cc(O)cc(O)c2C(=O)O1` — what was its Percentage of concentration relative to the sum of ZEN and ZEN metabolite concentrations? 100.0

Sample C[C@H](O)CCCC(=O)CCC/C=C/c1cc(O)cc(O)c1C(=O)O [HZEN, hydrolyzed zearalenone] — what was its Percentage of concentration relative to the sum of ZEN and ZEN metabolite concentrations? 0.0

====

Hi there, I'd appreciate the recorded Percentage of concentration relative to the sum of ZEN and ZEN metabolite concentrations for every entry that follows.
measurement_protocol: Feeding trial in rumen-fistulated dairy cows: ZEN and ZEN metabolites in rumen fluid from reticulum, dorsal mat layer and ventral sac
Assay type: in vivo, Holstein Friesian cows
settings: reticulorumen, ZEN+ZenA treatment, 10 h

Sample C[C@H](O)CCCC(=O)CCC/C=C/c1cc(O)cc(O)c1C(=O)O [HZEN, hydrolyzed zearalenone] — what was its Percentage of concentration relative to the sum of ZEN and ZEN metabolite concentrations? 100.0%

Sample `C[C@H]1CCC[C@@H](O)CCC/C=C/c2cc(O)cc(O)c2C(=O)O1` — what was its Percentage of concentration relative to the sum of ZEN and ZEN metabolite concentrations? 0.0%

Sample C[C@H](O)CCCC(=O)CCC/C=C/c1cc(O)cc(O)c1 [DHZEN, decarboxylated hydrolyzed zearalenone] — what was its Percentage of concentration relative to the sum of ZEN and ZEN metabolite concentrations? 0.0 (traces) %

Sample `C[C@H]1CCC[C@H](O)CCC/C=C/c2cc(O)cc(O)c2C(=O)O1` — what was its Percentage of concentration relative to the sum of ZEN and ZEN metabolite concentrations? 0.0 (traces) %

Sample `C[C@H]1CCCC(=O)CCC/C=C/c2cc(O)cc(O)c2C(=O)O1` — what was its Percentage of concentration relative to the sum of ZEN and ZEN metabolite concentrations? 0.0 (traces) %

====

measurement_protocol: Feeding trial in rumen-fistulated dairy cows: ZEN and ZEN metabolites in rumen fluid from reticulum, dorsal mat layer and ventral sac
Format: in vivo, Holstein Friesian cows
settings: female, Holstein Friesian, bovine, in vivo, po, 5 mg, dorsal mat layer, ZEN treatment; read-out: Time of peak concentration post-administration (converted)
parameter_measured: Tmax (h)
Write it as a number; the unit h goes unstated.

Sample `C[C@H]1CCCC(=O)CCC/C=C/c2cc(O)cc(O)c2C(=O)O1` — what was its Tmax? 1

====

measurement_protocol: Feeding trial in rumen-fistulated dairy cows: ZEN and ZEN metabolites in rumen fluid from reticulum, dorsal mat layer and ventral sac
Assay type: in vivo, Holstein Friesian cows
settings: reticulorumen, ZEN+ZenA treatment, 1 h
parameter_measured: Percentage of concentration relative to the sum of ZEN and ZEN metabolite concentrations (%)
Write it as a number; the unit % goes unstated.

Sample C[C@H](O)CCCC(=O)CCC/C=C/c1cc(O)cc(O)c1 [DHZEN, decarboxylated hydrolyzed zearalenone] — what was its Percentage of concentration relative to the sum of ZEN and ZEN metabolite concentrations? 0.0

Sample C[C@H](O)CCCC(=O)CCC/C=C/c1cc(O)cc(O)c1C(=O)O [HZEN, hydrolyzed zearalenone] — what was its Percentage of concentration relative to the sum of ZEN and ZEN metabolite concentrations? 100.0

Sample `C[C@H]1CCC[C@@H](O)CCC/C=C/c2cc(O)cc(O)c2C(=O)O1` — what was its Percentage of concentration relative to the sum of ZEN and ZEN metabolite concentrations? 0.0

Sample `C[C@H]1CCC[C@H](O)CCC/C=C/c2cc(O)cc(O)c2C(=O)O1` — what was its Percentage of concentration relative to the sum of ZEN and ZEN metabolite concentrations? 0.0

====

measurement_protocol: Feeding trial in rumen-fistulated dairy cows: ZEN and ZEN metabolites in rumen fluid from reticulum, dorsal mat layer and ventral sac
Type: in vivo, Holstein Friesian cows
settings: reticulorumen, ZEN treatment, 10 h
Experimental: Ruminal metabolism of ZEN with and without supplementation of ZenA was investigated in four rumen-fistulated Holstein Friesian cows (sex: female; age at start: 5.9 ± 1.0 years; body weight at start: 863 ± 65 kg; physiological stage: non-lactating; general health: good, non-gestating; identification procedure: ear tag 4-digit code). […] In our trial setup, each animal was considered an experimental unit (n = 4). […] Animals were treated and assessed in the same random order at each experimental time point. […]
parameter_measured: Percentage of concentration relative to the sum of ZEN and ZEN metabolite concentrations (%)
Write it as a number; the unit % goes unstated.

Sample C[C@H]1CCCC(=O)CCC/C=C/c2cc(O)cc(O)c2C(=O)O1 [ZEN, zearalenone] — what was its Percentage of concentration relative to the sum of ZEN and ZEN metabolite concentrations? 74.4

Sample C[C@H]1CCC[C@@H](O)CCC/C=C/c2cc(O)cc(O)c2C(=O)O1 [β-ZEL, β-zearalenol] — what was its Percentage of concentration relative to the sum of ZEN and ZEN metabolite concentrations? 0.0

Sample C[C@H](O)CCCC(=O)CCC/C=C/c1cc(O)cc(O)c1 [DHZEN, decarboxylated hydrolyzed zearalenone] — what was its Percentage of concentration relative to the sum of ZEN and ZEN metabolite concentrations? 0.0

Sample C[C@H]1CCC[C@H](O)CCC/C=C/c2cc(O)cc(O)c2C(=O)O1 [α-ZEL, α-zearalenol] — what was its Percentage of concentration relative to the sum of ZEN and ZEN metabolite concentrations? 25.6

Sample C[C@H](O)CCCC(=O)CCC/C=C/c1cc(O)cc(O)c1C(=O)O [HZEN, hydrolyzed zearalenone] — what was its Percentage of concentration relative to the sum of ZEN and ZEN metabolite concentrations? 0.0

====

measurement_protocol: Feeding trial in rumen-fistulated dairy cows: ZEN and ZEN metabolites in rumen fluid from reticulum, dorsal mat layer and ventral sac
Type: in vivo, Holstein Friesian cows
settings: reticulorumen, ZEN treatment, 24 h
Hi there, I'd appreciate the recorded Percentage of concentration relative to the sum of ZEN and ZEN metabolite concentrations for every entry that follows.

Sample `C[C@H]1CCCC(=O)CCC/C=C/c2cc(O)cc(O)c2C(=O)O1` — what was its Percentage of concentration relative to the sum of ZEN and ZEN metabolite concentrations? 50.2%

Sample `C[C@H]1CCC[C@H](O)CCC/C=C/c2cc(O)cc(O)c2C(=O)O1` — what was its Percentage of concentration relative to the sum of ZEN and ZEN metabolite concentrations? 49.8%

Sample `C[C@H]1CCC[C@@H](O)CCC/C=C/c2cc(O)cc(O)c2C(=O)O1` — what was its Percentage of concentration relative to the sum of ZEN and ZEN metabolite concentrations? 0.0%

Sample C[C@H](O)CCCC(=O)CCC/C=C/c1cc(O)cc(O)c1 [DHZEN, decarboxylated hydrolyzed zearalenone] — what was its Percentage of concentration relative to the sum of ZEN and ZEN metabolite concentrations? 0.0%

Sample C[C@H](O)CCCC(=O)CCC/C=C/c1cc(O)cc(O)c1C(=O)O [HZEN, hydrolyzed zearalenone] — what was its Percentage of concentration relative to the sum of ZEN and ZEN metabolite concentrations? 0.0%
